Catalogue of MIC90 readings, one per entry.
# System: Prevotella nigrescens
# assayProcedure: Antibacterial activity against Prevotella nigrescens by CLSI M11-A6 agar dilution method
# Assay type: functional
The reply should contain only the number, in µg/mL.

Some molecules with known MIC90 results, for comparison:
molecule	units	measurement
CCCCCCCCCCNCCN[C@@]1(C)C[C@H](O[C@H]2[C@H](Oc3c4cc5cc3Oc3ccc(cc3Cl)[C@@H](O)[C@@H](NC(=O)[C@@H](CC(C)C)NC)C(=O)N[C@@H](CC(N)=O)C(=O)N[C@H]5C(=O)N[C@H]3C(=O)N[C@H](C(=O)N[C@H](C(=O)O)c5cc(O)c(CNCP(=O)(O)O)c(O)c5-c5cc3ccc5O)[C@H](O)c3ccc(c(Cl)c3)O4)O[C@H](CO)[C@@H](O)[C@@H]2O)O[C@@H](C)[C@H]1O [TELAVANCIN]	µg/mL	64
Cc1ncc([N+](=O)[O-])n1CCO [METRONIDAZOLE]	µg/mL	1

// MIC90 lookup, molecule = CC(=O)NC[C@H]1CN(c2ccc(N3CCOCC3)c(F)c2)C(=O)O1 [LINEZOLID] , result: 2

====

# System: Clostridium leptum
# assayProcedure: Antibacterial activity against Clostridium leptum by CLSI M11-A6 agar dilution method
# Type: functional
attributeMeasured: MIC50 (µg/mL)
The reply should contain only the number, in µg/mL.

// MIC50 lookup, molecule = `CN[C@H](CC(C)C)C(=O)N[C@H]1C(=O)N[C@@H](CC(N)=O)C(=O)N[C@H]2C(=O)N[C@H]3C(=O)N[C@H](C(=O)N[C@H](C(=O)O)c4cc(O)cc(O)c4-c4cc3ccc4O)[C@H](O)c3ccc(c(Cl)c3)Oc3cc2cc(c3O[C@@H]2O[C@H](CO)[C@@H](O)[C@H](O)[C@H]2O[C@H]2C[C@](C)(N)[C@H](O)[C@H](C)O2)Oc2ccc(cc2Cl)[C@H]1O` , result: 1

====

Catalogue of MIC90 readings, one per entry.
# System: Fusobacterium varium
# assayProcedure: Antibacterial activity against Fusobacterium varium by CLSI M11-A6 agar dilution method
# Format: functional
The reply should contain only the number, in µg/mL.

CCC[C@@H]1C[C@@H](C(=O)N[C@@H]([C@H]2O[C@H](SC)[C@H](O)[C@@H](O)[C@H]2O)[C@H](C)Cl)N(C)C1 32

// next entry
Lab entry: Fusobacterium varium assay, compound `Cc1ncc([N+](=O)[O-])n1CCO` , MIC90 = 0.25

====

Catalogue of MIC90 readings, one per entry.
# System: Ruminococcus lactaris
# assayProcedure: Antibacterial activity against Ruminococcus lactaris by CLSI M11-A6 agar dilution method
# Assay type: functional
The reply should contain only the number, in µg/mL.

Some compounds with known MIC90 results, for comparison:
compound	units	MIC90
CN[C@H](CC(C)C)C(=O)N[C@H]1C(=O)N[C@@H](CC(N)=O)C(=O)N[C@H]2C(=O)N[C@H]3C(=O)N[C@H](C(=O)N[C@H](C(=O)O)c4cc(O)cc(O)c4-c4cc3ccc4O)[C@H](O)c3ccc(c(Cl)c3)Oc3cc2cc(c3O[C@@H]2O[C@H](CO)[C@@H](O)[C@H](O)[C@H]2O[C@H]2C[C@](C)(N)[C@H](O)[C@H](C)O2)Oc2ccc(cc2Cl)[C@H]1O [VANCOMYCIN]	µg/mL	1
CCC[C@@H]1C[C@@H](C(=O)N[C@@H]([C@H]2O[C@H](SC)[C@H](O)[C@@H](O)[C@H]2O)[C@H](C)Cl)N(C)C1 [CLINDAMYCIN]	µg/mL	2
CCCCCCCCCC(=O)N[C@@H](Cc1c[nH]c2ccccc12)C(=O)N[C@H](CC(N)=O)C(=O)N[C@@H](CC(=O)O)C(=O)N[C@@H]1C(=O)NCC(=O)N[C@@H](CCCN)C(=O)N[C@@H](CC(=O)O)C(=O)N[C@H](C)C(=O)N[C@@H](CC(=O)O)C(=O)NCC(=O)N[C@H](CO)C(=O)N[C@@H]([C@H](C)CC(=O)O)C(=O)N[C@@H](CC(=O)c2ccccc2N)C(=O)O[C@@H]1C	µg/mL	2
CC(=O)NC[C@H]1CN(c2ccc(N3CCOCC3)c(F)c2)C(=O)O1 [LINEZOLID]	µg/mL	4

// next entry
// MIC90 lookup, compound = Cc1ncc([N+](=O)[O-])n1CCO [METRONIDAZOLE] , result: 0.25
